biological target: ABHD12 (Mus musculus, UniProt Q99LR1); assay: gel-based ABPP of mouse brain membrane proteome using the JJH350 probe; type: biochemical; conditions: JJH350 probe; SAR statements
Sequence (Q99LR1 whole entry): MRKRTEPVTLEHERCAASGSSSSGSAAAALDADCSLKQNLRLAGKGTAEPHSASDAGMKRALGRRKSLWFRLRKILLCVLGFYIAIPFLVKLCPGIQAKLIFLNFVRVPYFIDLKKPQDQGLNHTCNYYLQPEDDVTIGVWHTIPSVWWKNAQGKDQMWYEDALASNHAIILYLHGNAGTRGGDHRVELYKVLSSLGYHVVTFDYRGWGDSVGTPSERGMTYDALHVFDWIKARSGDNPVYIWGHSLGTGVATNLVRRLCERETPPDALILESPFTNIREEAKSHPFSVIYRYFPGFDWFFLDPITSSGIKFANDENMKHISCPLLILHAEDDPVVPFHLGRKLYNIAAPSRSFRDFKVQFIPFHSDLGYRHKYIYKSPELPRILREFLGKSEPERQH
measured_endpoint: ABHD12 inhibitory activity, gel-based ABPP

{"smiles_string": "FC(F)(F)Oc1ccc(Oc2ccnc(N3CCC(NC(=S)Nc4cccnc4)CC3)c2)cc1", "observed": "increased potency"}
{"smiles_string": "Fc1ccc(Oc2ccnc(N3CCC(NC(=S)Nc4cccnc4)CC3)c2)cc1", "observed": "increased potency"}
